# procedure_details: LEV blocking and displacement PET scans, Lassen plot
# Assay type: in vivo, rhesus monkeys (Macaca mulatta)
# condition_description: male, rhesus monkey, brain (caudate), intravenous; Caudate; LEV 30 mg/kg i.v.; read-out: VT (blocking)
quantity: Kp
// response body must contain only the number

Asked: Find the recorded Kp belonging to Cc1nccn1CN1C[C@@H](c2cc(F)cc([18F])c2)CC1=O [[^18F]SDM-16] and report it.
Given back: 7.7

* * *

# procedure_details: LEV blocking and displacement PET scans, Lassen plot
# Assay type: in vivo, rhesus monkeys (Macaca mulatta)
# condition_description: male, rhesus monkey, brain (putamen), intravenous; Putamen; LEV 30 mg/kg i.v.; read-out: VT (blocking)
quantity: Kp
// response body must contain only the number

Asked: Find the recorded Kp belonging to Cc1nccn1CN1C[C@@H](c2cc(F)cc([18F])c2)CC1=O [[^18F]SDM-16] and report it.
Given back: 8.8
